Source listed as patent US10231956B2.

- Test system: SW480 colon cancer cells
- PROTOCOL_SUMMARY: Cell viability assay (CellTiter-Blue) in SW480 colon cancer cells
- Type: cell-based
- CONDITION_DETAILS: Homo sapiens, 96 h, four days, CellTiter-Blue

# MOLECULE, MEASUREMENT_UNITS, VALUE_QUALIFIER, EC50
rows = [
    ("c1cncc(-c2ccc3[nH]nc(-c4cc5cnccc5[nH]4)c3n2)c1 [Compound 256]", "µM", "=", 0.161),
    ("Cc1ccncc1-c1ccc2[nH]nc(-c3cc4c(N5CCN(C)CC5)nccc4[nH]3)c2n1 [Compound 229]", "µM", "=", 0.824),
    ("CN1CCN(c2nccc3[nH]c(-c4n[nH]c5ccc(-c6cncc(NC(=O)c7ccccc7)c6)nc45)cc23)CC1 [Compound 235]", "µM", ">", 10),
    ("Fc1ccc(-c2nccc3[nH]c(-c4n[nH]c5ccc(-c6cncc(CN7CCC(F)(F)C7)c6)nc45)cc23)cc1 [Compound 54]", "µM", "=", 0.516),
    ("c1cc2[nH]c(-c3n[nH]c4ccc(-c5cncc(OCCN6CCCC6)c5)nc34)cc2cn1 [Compound 658]", "µM", "=", 2.07),
    ("Fc1cccc(-c2nccc3[nH]c(-c4n[nH]c5ccc(-c6cncc(CN7CCCCC7)c6)nc45)cc23)c1 [Compound 15]", "µM", "=", 1.14),
    ("Nc1cncc(-c2ccc3[nH]nc(-c4cc5c(-c6ccncc6)nccc5[nH]4)c3n2)c1 [Compound 115]", "µM", ">", 10),
    ("Fc1ccccc1-c1nccc2[nH]c(-c3n[nH]c4ccc(-c5cn[nH]c5)nc34)cc12 [Compound 539]", "µM", "=", 1.27),
    ("c1cncc(-c2ccc3[nH]nc(-c4cc5c(N6CCCCC6)nccc5[nH]4)c3n2)c1 [Compound 172]", "µM", "=", 0.543),
    ("Cc1ccncc1-c1ccc2[nH]nc(-c3cc4c(-c5cccs5)nccc4[nH]3)c2n1 [Compound 341]", "µM", "=", 0.577),
    ("Oc1cncc(-c2ccc3[nH]nc(-c4cc5c(-c6cccs6)nccc5[nH]4)c3n2)c1 [Compound 709]", "µM", "=", 0.457),
    ("CS(=O)(=O)NCc1cc(F)cc(-c2nccc3[nH]c(-c4n[nH]c5ccc(-c6cncnc6)nc45)cc23)c1 [Compound 503]", "µM", ">", 10),
    ("c1cc2[nH]c(-c3n[nH]c4ccc(-c5cncc(OC6CCCCC6)c5)nc34)cc2c(-c2ccoc2)n1 [Compound 687]", "µM", "=", 0.555),
    ("O=C(Nc1cncc(-c2ccc3[nH]nc(-c4cc5c(-c6cccnc6)nccc5[nH]4)c3n2)c1)C1CCCC1 [Compound 106]", "µM", "=", 0.737),
    ("FC1(F)CCN(Cc2cncc(-c3ccc4[nH]nc(-c5cc6cnccc6[nH]5)c4n3)c2)C1 [Compound 278]", "µM", "=", 0.088),
    ("Fc1cccc(-c2nccc3[nH]c(-c4n[nH]c5ccc(C6CCNCC6)nc45)cc23)c1 [Compound 505]", "µM", "=", 4.12),
    ("c1cc(-c2nccc3[nH]c(-c4n[nH]c5ccc(-c6cncc(CNCC7CCCC7)c6)nc45)cc23)ccn1 [Compound 137]", "µM", "=", 1.66),
    ("c1cc2[nH]c(-c3n[nH]c4ccc(-c5cncc(CNCC6CCCC6)c5)nc34)cc2c(-c2ccoc2)n1 [Compound 333]", "µM", "=", 1.19),
    ("Fc1cccc(-c2nccc3[nH]c(-c4n[nH]c5ccc(-c6cccnc6)nc45)cc23)c1 [Compound 4]", "µM", ">", 10),
    ("CC(C)(C)C(=O)Nc1cncc(-c2ccc3[nH]nc(-c4cc5c(-c6cccc(F)c6)nccc5[nH]4)c3n2)c1 [Compound 8]", "µM", "=", 2.62),
    ("Fc1ccccc1-c1nccc2[nH]c(-c3n[nH]c4ccc(-c5cncnc5)nc34)cc12 [Compound 83]", "µM", ">", 10),
    ("CN(C)Cc1cncc(-c2ccc3[nH]nc(-c4cc5cnccc5[nH]4)c3n2)c1 [Compound 265]", "µM", "=", 0.907),
    ("CN1CCN(c2nccc3[nH]c(-c4n[nH]c5ccc(-c6cncnc6)nc45)cc23)CC1 [Compound 251]", "µM", "=", 1.13),
]

====

- Tested on: primary human fibroblasts derived from IPF patients (LL29 cells)
- PROTOCOL_SUMMARY: Inhibition of fibrotic process: αSMA staining in TGF-β1 treated LL29 fibroblasts
- Type: cell-based
- CONDITION_DETAILS: Fibroblast, 96 h, TGF-β1 20 ng/mL, 4 days, % cells positive for αSMA
For each record, check the reported EC50: if it is below 3000 nM write true, else write false.

# COMPOUND, STUDY_SYSTEM, CATEGORY_LABEL
records = [
    ("c1cc(-c2nccc3[nH]c(-c4n[nH]c5ccc(-c6cncc(CNCC7CCCC7)c6)nc45)cc23)ccn1 [Compound 137]", "primary human fibroblasts derived from IPF patients (LL29 cells)", "false"),
    ("Fc1ccc(-c2nccc3[nH]c(-c4n[nH]c5ccc(-c6ccccn6)nc45)cc23)cc1 [Compound 56]", "primary human fibroblasts derived from IPF patients (LL29 cells)", "true"),
    ("c1csc(-c2nccc3[nH]c(-c4n[nH]c5ccc(-c6ccncc6)nc45)cc23)c1 [Compound 354]", "primary human fibroblasts derived from IPF patients (LL29 cells)", "true"),
    ("c1cc2[nH]c(-c3n[nH]c4ccc(-c5cncnc5)nc34)cc2cn1 [Compound 279]", "primary human fibroblasts derived from IPF patients (LL29 cells)", "true"),
    ("c1cncc(-c2ccc3[nH]nc(-c4cc5cnccc5[nH]4)c3n2)c1 [Compound 256]", "primary human fibroblasts derived from IPF patients (LL29 cells)", "true"),
    ("CC(C)CC(=O)Nc1cncc(-c2ccc3[nH]nc(-c4cc5c(N6CCN(C)CC6)nccc5[nH]4)c3n2)c1 [Compound 226]", "primary human fibroblasts derived from IPF patients (LL29 cells)", "true"),
    ("CN(C)Cc1cncc(-c2ccc3[nH]nc(-c4cc5cnccc5[nH]4)c3n2)c1 [Compound 265]", "primary human fibroblasts derived from IPF patients (LL29 cells)", "false"),
    ("c1cc2[nH]c(-c3n[nH]c4ccc(-c5cncc(OCCN6CCCC6)c5)nc34)cc2cn1 [Compound 658]", "primary human fibroblasts derived from IPF patients (LL29 cells)", "false"),
]

====

- System: primary human fibroblasts derived from IPF patients (LL29 cells)
- PROTOCOL_SUMMARY: Inhibition of fibrotic process: αSMA staining in TGF-β1 treated LL29 fibroblasts
- Type: cell-based
- CONDITION_DETAILS: Fibroblast, 96 h, TGF-β1 20 ng/mL, 4 days, % cells positive for αSMA

# COMPOUND, EC50
rows = [
    ("c1cc2[nH]c(-c3n[nH]c4ccc(-c5cncc(OC6CCCCC6)c5)nc34)cc2c(N2CCCCC2)n1 [Compound 607]", "> 10 µM"),
    ("CS(=O)(=O)NCc1cc(F)cc(-c2nccc3[nH]c(-c4n[nH]c5ccc(-c6cncc(NC(=O)C7CCCC7)c6)nc45)cc23)c1 [Compound 498]", "> 10 µM"),
    ("CS(=O)(=O)NCc1cc(F)cc(-c2nccc3[nH]c(-c4n[nH]c5ccc(-c6cncc(NC(=O)Cc7ccccc7)c6)nc45)cc23)c1 [Compound 486]", "> 10 µM"),
]

====

- Tested on: SW480 colon cancer cells
- PROTOCOL_SUMMARY: Cell viability assay (CellTiter-Blue) in SW480 colon cancer cells
- Assay type: cell-based
- CONDITION_DETAILS: Homo sapiens, 96 h, four days, CellTiter-Blue
pEC50: −log10 of the molar value.
Listed here are compounds together with their documented pEC50.

# COMPOUND, pEC50
rows = [
    ("CC(C)CC(=O)Nc1cncc(-c2ccc3[nH]nc(-c4cc5c(N6CCN(C)CC6)nccc5[nH]4)c3n2)c1 [Compound 226]", "< 5.00"),
    ("CS(=O)(=O)NCc1cc(F)cc(-c2nccc3[nH]c(-c4n[nH]c5ccc(-c6ccccn6)nc45)cc23)c1 [Compound 504]", "< 5.00"),
    ("CCNCc1cncc(-c2ccc3[nH]nc(-c4cc5cnccc5[nH]4)c3n2)c1 [Compound 258]", 5.78),
]
